protein stability index overview
- Test system: Saccharomyces cerevisiae;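 also: PSI is a weighted mean of sequencing reads over stability bins, variants kept only with over 10 reads, mCherry proximal and sfGFP distal, peptide attached via GGGS linker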
- METHOD_SUMMARY: protein stability index of tFT-peptide fusion (C-terminal peptide) (PSI (0-1 scale)); higher = more stable (slower turnover)
- CONDITIONS: genetic background: doa10 deletion; temperature: 30 C
Could you keep your reply to the number by itself?

Example results:
| SEQUENCE_DATA | TESTED_ON | RESULT |
| --- | --- | --- |
| LLYYQVFKTRRL | Saccharomyces cerevisiae | 0.357 |
| VLYWTGTLFVSL | Saccharomyces cerevisiae | 0.195 |
| LSPRPPAPYYSP | Saccharomyces cerevisiae | 0.676 |
| RFFVRRVRVAVL | Saccharomyces cerevisiae | 0.386 |
| WWADRLVGVCIV | Saccharomyces cerevisiae | 0.39 |

Value of protein stability index reported for the sequence `IIIGTLLYVNVR` is 0.188
